Molecular target: KRAS Q61H (Homo sapiens (Human), UniProt P01116+P62937, Q61H)
Sequence (P01116-2 other isoform, or with tags, fused parts or gaps Q61H): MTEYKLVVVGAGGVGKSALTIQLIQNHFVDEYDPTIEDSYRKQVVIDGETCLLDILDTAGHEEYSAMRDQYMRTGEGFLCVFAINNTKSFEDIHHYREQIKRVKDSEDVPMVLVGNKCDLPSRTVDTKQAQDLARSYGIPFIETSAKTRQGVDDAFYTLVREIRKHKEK
Sequence (P62937 whole entry): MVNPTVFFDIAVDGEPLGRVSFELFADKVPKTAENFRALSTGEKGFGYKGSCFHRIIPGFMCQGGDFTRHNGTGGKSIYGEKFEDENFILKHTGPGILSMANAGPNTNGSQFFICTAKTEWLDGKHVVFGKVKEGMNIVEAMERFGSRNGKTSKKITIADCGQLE
Test: Ras-Raf (BRAF RBD) disruption / FRET / MOA assay, KRAS Q61H
Format: biochemical
Conditions: Ras-Raf disruption/FRET/MOA assay; class symbols; read-out: KRAS Q61H FRET data IC50
pIC50: −log10 of the molar value.

[
  {
    "COMPOUND": "C=CC(=O)N1CCO[C@]2(CCN(C(=O)N(C)[C@H](C(=O)N[C@H]3Cc4nc(cs4)-c4ccc5c(c4)c(c(-c4cccnc4[C@H](C)OC)n5CC(F)(F)F)CC(C)(C)COC(=O)[C@@H]4CCCN(N4)C3=O)C(C)C)C2)C1 (atropisomer, axis not shown)",
    "pIC50": "6.00 to 7.00"
  },
  {
    "COMPOUND": "CCn1c(-c2cccnc2[C@H](C)OC)c2c3cc(ccc31)-c1cccc(c1)C[C@H](NC(=O)C(COC1CN(C(=O)C#CC(C)(C)N(C)C)C1)C(C)C)C(=O)N1CCC[C@H](N1)C(=O)OCC(C)(C)C2 (stereo partly drawn)",
    "pIC50": "< 5.00"
  },
  {
    "COMPOUND": "CCn1c(-c2cccnc2[C@H](C)OC)c2c3cc(ccc31)N1CCO[C@@H](C[C@H](NC(=O)[C@H](C(C)C)N(C)C(=O)C3(F)CCN(C(=O)C#CC(C)(C)N(C)C)CC3)C(=O)N3CCC[C@H](N3)C(=O)OCC(C)(C)C2)C1 (atropisomer, axis not shown)",
    "pIC50": "5.00 to 6.00"
  },
  {
    "COMPOUND": "C=CC(=O)N1CC[C@H](C(=O)N(C)[C@H](C(=O)N[C@H]2Cc3cc(C)cc(c3)-c3ccc4c(c3)c(c(-c3cccnc3[C@H](C)OC)n4CC)CC(C)(C)COC(=O)[C@@H]3CCCN(N3)C2=O)C(C)C)C1 (atropisomer, axis not shown)",
    "pIC50": "5.00 to 6.00"
  },
  {
    "COMPOUND": "C=CC(=O)N1CC[C@H](C(=O)N(C)[C@@H](CC(F)(F)F)C(=O)N[C@H]2Cc3cccc(c3)-c3ccc4c(c3)c(c(-c3cccnc3[C@H](C)OC)n4CC)CC(C)(C)COC(=O)[C@@H]3CCCN(N3)C2=O)C1 (atropisomer, axis not shown)",
    "pIC50": "5.00 to 6.00"
  },
  {
    "COMPOUND": "C/C=C/C(=O)N1CC2(CCN(C(=O)N(C)[C@H](C(=O)N[C@H]3Cc4nc(cs4)-c4ccc5c(c4)c(c(-c4cccnc4[C@H](C)OC)n5CC)CC(C)(C)COC(=O)[C@@H]4CCCN(N4)C3=O)C(C)C)CC2)C1 (atropisomer, axis not shown)",
    "pIC50": "7.00 to 8.00"
  },
  {
    "COMPOUND": "CCn1c(-c2cccnc2[C@H](C)OC)c2c3cc(ccc31)N1CCC[C@@H](C[C@H](NC(=O)[C@H](C(C)C)N(C)C(=O)C3(F)CCN(C(=O)C#CC(C)(C)N(C)C)CC3)C(=O)N3CCC[C@H](N3)C(=O)OCC(C)(C)C2)C1 (atropisomer, axis not shown) [Example A615]",
    "pIC50": "< 5.00"
  },
  {
    "COMPOUND": "C=CC(=O)N(C)[C@@H]1C[C@H](C)N(C(=O)N(C)[C@H](C(=O)N[C@H]2Cc3nc(cs3)-c3ccc4c(c3)c(c(-c3cccnc3[C@H](C)OC)n4CC)CC(C)(C)COC(=O)[C@@H]3CCCN(N3)C2=O)C(C)C)C1 (atropisomer, axis not shown)",
    "pIC50": "7.00 to 8.00"
  },
  {
    "COMPOUND": "CCn1c(-c2cccnc2[C@H](C)OC)c2c3cc(ccc31)-c1csc(n1)C[C@H](NC(=O)[C@H](C(C)C)N(C)C(=O)N1CCC13CN(C(=O)/C=C/CN(C)C)C3)C(=O)N1CCC[C@H](N1)C(=O)OCC(C)(C)C2 (atropisomer, axis not shown)",
    "pIC50": "> 8.00"
  },
  {
    "COMPOUND": "C=CC(=O)N1CC[C@H](C(=O)N(C)[C@H](C(=O)N[C@H]2Cc3coc(n3)-c3ccc4c(c3)c(c(-c3cccnc3[C@H](C)OC)n4CC)CC(C)(C)COC(=O)[C@@H]3CCCN(N3)C2=O)C(C)C)C1 (atropisomer, axis not shown)",
    "pIC50": "6.00 to 7.00"
  },
  {
    "COMPOUND": "C=CC(=O)N1CC[C@H](C(=O)N(C)[C@H](C(=O)N[C@H]2Cc3cc(O)cc(c3)-c3ccc4c(c3)c(c(-c3ccc(N5CCN(C)CC5)nc3)n4CC)CC(C)(C)COC(=O)[C@@H]3CCCN(N3)C2=O)C(C)C)C1",
    "pIC50": "6.00 to 7.00"
  },
  {
    "COMPOUND": "CCn1c(-c2cccnc2[C@H](C)OC)c2c3cc(ccc31)N1CCO[C@@H](C[C@H](NC(=O)[C@@H](COC3CCN(C(=O)C#CC(C)(C)N(C)C)CC3)C(C)C)C(=O)N3CCC[C@H](N3)C(=O)OCC(C)(C)C2)C1 (atropisomer, axis not shown)",
    "pIC50": "< 5.00"
  },
  {
    "COMPOUND": "CCn1c(-c2cccnc2[C@H](C)OC)c2c3cc(ccc31)-c1cccc(c1)C[C@H](NC(=O)[C@H](C(C)C)N1CC[C@]3(CCN(C(=O)C#CC(C)(C)N(C)C)C3)C1=O)C(=O)N1CCC[C@H](N1)C(=O)OCC(C)(C)C2 (atropisomer, axis not shown)",
    "pIC50": "6.00 to 7.00"
  },
  {
    "COMPOUND": "C=CC(=O)N1CC2(CCN2C(=O)N(C)[C@H](C(=O)N[C@H]2Cc3nc(cs3)-c3ccc4c(c3)c(c(-c3cccnc3[C@H](C)OC)n4CC)CC(C)(C)COC(=O)[C@@H]3CCCN(N3)C2=O)C(C)C)C1 (atropisomer, axis not shown)",
    "pIC50": "7.00 to 8.00"
  },
  {
    "COMPOUND": "C=CC(=O)N1CC[C@H](C(=O)N(C)[C@H](C(=O)N[C@H]2Cc3cc(O)cc(c3)-c3ccc4c(c3)c(c(-c3cccc5c3COC5)n4CC)CC(C)(C)COC(=O)[C@@H]3CCCN(N3)C2=O)C(C)C)C1",
    "pIC50": "5.00 to 6.00"
  }
]
